test system: CD4+ T cells; experiment: Exogenous autologous healthy donor restimulation assay, TNFα and IFNγ production by CD4+ T cells; format: cell-based, human; set-up: unit not given here; settings: maximum CD4+ T-cell response, donor independent; peptide pool 10 μg/mL, healthy donors
Hi there, I'd appreciate the recorded Frequency (TNFα+ IFNγ+ CD4 T cells) for every entry that follows.
Give your answer as a number; write no unit.

Please list Frequency (TNFα+ IFNγ+ CD4 T cells) recorded for the sequence GRAGQGGGMISVSQEFIK [FUS7, gene fusion FAM98A-> LOC105374454]
0.21

Please list Frequency (TNFα+ IFNγ+ CD4 T cells) recorded for the sequence AGDVLFIPGISLKVHKVQHSKVINICN [AS55, alternative splicing, TYW5]
0.042

Please list Frequency (TNFα+ IFNγ+ CD4 T cells) recorded for the sequence CKVCQNCKNPKMARAS [AS23, alternative splicing, KMT2C]
0.063

Please list Frequency (TNFα+ IFNγ+ CD4 T cells) recorded for the sequence ERSHSKKKDGLVRNDGPGFPPMFSTSENTNLD [AS54, alternative splicing, SETBP1]
0.033

Please list Frequency (TNFα+ IFNγ+ CD4 T cells) recorded for the sequence FLQKHGNENTVLMLETLSEIRYGYVSCVCCPLLSPYGRCLN [AS26, alternative splicing, AGFG1]
0.097

Please list Frequency (TNFα+ IFNγ+ CD4 T cells) recorded for the sequence PQEEVPFRSITTELFPSMC [FUS27, gene fusion TBCEL-> TECTA]
0.038

Please list Frequency (TNFα+ IFNγ+ CD4 T cells) recorded for the sequence DPTTKRSRLTPKLHFLVERNPRWSQEQRKYL [AS92, alternative splicing, MSI2]
0.048

Please list Frequency (TNFα+ IFNγ+ CD4 T cells) recorded for the sequence LDPPHDEKALACPQWTLLWIFWTAKAL [AS95, alternative splicing, WDR64]
0.014

* * *

system: CD4+ T cells; experiment: Exogenous autologous healthy donor restimulation assay, TNFα and IFNγ production by CD4+ T cells; type: cell-based, human; settings: maximum CD4+ T-cell response (TNFα and IFNγ), donor independent; peptide pool 10 μg/mL, healthy donors
// returns false unless Fold change (CD4+) vs. DMSO is strictly below 9, in which case true

Given YECTGCKTSFPHRSQS [FUS46, gene fusion GCNA-> LOC101059915] , is recorded Fold change (CD4+) vs. DMSO strictly lower than 9?
false

Given ACGACGAGFFIKQKCIEQRESRSLS [FUS22, gene fusion IGLL5-> COMMD3-BMI1, BMI1] , is recorded Fold change (CD4+) vs. DMSO strictly lower than 9?
true

Given LEDKELGRISVCPWTEGLEKMEKTLLCSSSG [AS88, alternative splicing, CADPS2] , is recorded Fold change (CD4+) vs. DMSO strictly lower than 9?
false

Given LVARPEIQIFMEEDVMKVE [AS124, alternative splicing, PDZRN4] , is recorded Fold change (CD4+) vs. DMSO strictly lower than 9?
true

Given PPLITNVTEKPWKHTRIEMPLARLTRP [FUS51, gene fusion POU2AF1-> COLCA1] , is recorded Fold change (CD4+) vs. DMSO strictly lower than 9?
false

Given TAILFTRQQSKALPSLGITNRHGFWAGQGNTVMHGRDSDGKQVKGTVVILAQGAFHQ [AS109, alternative splicing, ADAMTS15] , is recorded Fold change (CD4+) vs. DMSO strictly lower than 9?
false

Given ERSHSKKKDGLVRNDGPGFPPMFSTSENTNLD [AS54, alternative splicing, SETBP1] , is recorded Fold change (CD4+) vs. DMSO strictly lower than 9?
false

Given NAVRSYYETNGGMSFLRITP [FUS19, gene fusion CADPS2-> RNF148] , is recorded Fold change (CD4+) vs. DMSO strictly lower than 9?
true
